pIC50: −log10 of the molar value.
Recorded pIC50 values (PLK2 (Homo sapiens, UniProt Q9NYY3)) are given below.

| compound | pIC50 |
| --- | --- |
| CC(C)(C)OC(=O)Nc1ccc2c(c1)NC(=O)/C2=C/c1ccc2cn[nH]c2c1 [Example A37] | < 4.30 |
| O=C1Nc2ccccc2C1=Cc1ccc2c(/C=C/c3ccccn3)n[nH]c2c1 (mixture of isomers) [Example A41] | < 4.30 |
| O=C1Nc2ccc(Br)cc2/C1=C\c1ccc2[nH]ncc2c1 [Example A31] | 4.30 to 5.30 |
| O=C1Nc2ccccc2/C1=C\c1ccc2[nH]ncc2c1 [Example A6] | > 5.30 |

Next compound, please.
GET pIC50 | system: PLK2 (Homo sapiens, UniProt Q9NYY3) | item: O=C1Nc2ccccc2/C1=C\c1ccc2cn[nH]c2c1 [Example A5] 4.30 to 5.30
